assay: Stability/conversion of esters in rat liver S9; format: in vitro ADME; settings: s9, pH 7.4, read-out: T1/2 Rat Liver S9
The label is 1 (yes) for half-life at 10 μM below 4 min and 0 (no) for half-life at 10 μM equal to or exceeding 4 min.

* CC[C@H](C)OC(=O)[C@@H](F)ON1C(=O)N2C[C@H]1C=C(C)[C@H]2C(N)=O [Example 20] | 0 (no)
* CCOC(=O)[C@@H](F)ON1C(=O)N2C[C@H]1C(C)=C[C@H]2C#N [Example 94] | 1 (yes)
* CC[C@@H](C)OC(=O)[C@@H](F)ON1C(=O)N2C[C@H]1C=C(C)[C@H]2C(N)=O [Example 22] | 0 (no)
* CC1=C[C@@H]2CN(C(=O)N2O[C@H](F)C(=O)OCc2ccccc2)[C@@H]1C(N)=O [Example 54] | 1 (yes)
* CCOC(=O)[C@H](F)ON1C(=O)N2C[C@H]1C(C)=C[C@H]2C(N)=O [Example 32] | 1 (yes)
* CC1=C[C@@H](C(N)=O)N2C[C@@H]1N(O[C@H](F)C(=O)OC(C)C)C2=O [Example 35] | 0 (no)
* CC1=C[C@@H](C(N)=O)N2C[C@@H]1N(O[C@@H](F)C(=O)OC(C)C)C2=O [Example 36] | 1 (yes)
* CCOC(=O)[C@@H](F)ON1C(=O)N2C[C@H]1C(C)=C[C@H]2C(N)=O [Example 31] | 0 (no)
* CCOC(=O)[C@H](F)ON1C(=O)N2C[C@H]1C=C(C)[C@H]2C(N)=O [Example 2] | 1 (yes)
* CCOC(=O)[C@@H](F)ON1C(=O)N2C[C@H]1C=C(C)[C@H]2C(N)=O [Example 1] | 0 (no)

* * *

molecular target: TEM-1 (Class A beta-lactamase) (Escherichia coli, UniProt P62593); experiment: Inhibition of beta-lactamase enzymes (nitrocefin hydrolysis), TEM-1; type: biochemical; conditions: read-out: Class A TEM-1 60 min IC50, nitrocefin 100 μM
Sequence (P62593 whole entry, looked up, species assumed): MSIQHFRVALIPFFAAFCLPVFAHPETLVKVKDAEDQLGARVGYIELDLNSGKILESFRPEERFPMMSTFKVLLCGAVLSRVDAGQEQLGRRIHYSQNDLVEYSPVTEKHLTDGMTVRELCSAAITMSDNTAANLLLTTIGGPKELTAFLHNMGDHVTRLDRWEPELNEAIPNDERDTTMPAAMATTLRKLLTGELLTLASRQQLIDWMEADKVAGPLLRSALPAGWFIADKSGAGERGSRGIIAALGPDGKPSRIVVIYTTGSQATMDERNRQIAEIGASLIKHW
pIC50: −log10 of the molar value. Structures can show the parent of a compound that is named as a salt.
pIC50 values, listed per item
property name: pIC50

- CC1=C[C@@H]2CN(C(=O)N2O[C@H](F)C(=O)O)[C@@H]1C(N)=O [Example 4, lithium salt]: 8.87
- CC1=C[C@@H]2CN(C(=O)N2O[C@@H](F)C(=O)O)[C@@H]1C(=O)NC1COC1 [Example 66, lithium salt]: 6.18
- NC(=O)[C@@H]1CC[C@@H]2CN1C(=O)N2O[C@H](F)C(=O)O [Comparator 98, reference compound]: 8.89

* * *

assay: Stability/conversion of esters in rat liver S9; format: in vitro ADME; details: liver S9, pH 7.4, read-out: T1/2 Rat Liver S9
property name: half-life at 10 μM (min)

- CCCCCOC(=O)[C@@H](F)ON1C(=O)N2C[C@H]1C=C(C)[C@H]2C(N)=O: 1.7
- CCCCOC(=O)[C@@H](F)ON1C(=O)N2C[C@H]1C=C(C)[C@H]2C(N)=O: 2.8
- CCCCCCOC(=O)[C@@H](F)ON1C(=O)N2C[C@H]1C=C(C)[C@H]2C(N)=O: 0.45
- CCCCCCCCOC(=O)[C@@H](F)ON1C(=O)N2C[C@H]1C=C(C)[C@H]2C(N)=O: 0.22
- CC1=C[C@@H]2CN(C(=O)N2O[C@H](F)C(=O)OCC(C)C)[C@@H]1C(N)=O: 1.8
- CCOC(=O)CON1C(=O)N2C[C@H]1C(C)=C[C@H]2C(N)=O: 11
- CC1=C[C@@H]2CN(C(=O)N2O[C@H](F)C(=O)OC(C)OC(=O)OC(C)C)[C@@H]1C(N)=O (some centres unmarked): 2

* * *

target: OXA-48 (Class D beta-lactamase) (Klebsiella pneumoniae); experiment: Inhibition of beta-lactamase enzymes (nitrocefin hydrolysis), OXA-48; conditions: read-out: Class D OXA-48 60 min IC50, nitrocefin 100 μM
Sequence (Q6XEC0 whole entry, looked up, species assumed): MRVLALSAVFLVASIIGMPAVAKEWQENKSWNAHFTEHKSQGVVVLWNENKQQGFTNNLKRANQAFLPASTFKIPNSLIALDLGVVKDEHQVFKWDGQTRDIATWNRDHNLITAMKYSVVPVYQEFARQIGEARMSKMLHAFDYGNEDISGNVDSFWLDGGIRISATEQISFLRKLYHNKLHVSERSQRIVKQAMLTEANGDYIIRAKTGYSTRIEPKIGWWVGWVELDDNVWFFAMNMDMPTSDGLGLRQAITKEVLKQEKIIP
Structures can show the parent of a compound that is named as a salt.
property name: IC50 (nM)

• CC(=O)NNC(=O)[C@@H]1C(C)=C[C@@H]2CN1C(=O)N2OC(F)C(=O)O (some centres unmarked) [Example 27, lithium salt] = 18
• CC1=C[C@@H]2CN(C(=O)N2O[C@@H](F)C(=O)O)[C@@H]1C(=O)NCCC(N)=O [Example 71, lithium salt] = 75
• CC1=C[C@@H](C(N)=O)N2C[C@@H]1N(O[C@@H](F)C(=O)O)C2=O [Example 34, lithium salt] = 19
• NC(=O)[C@@H]1C(C2CC2)=C[C@@H]2CN1C(=O)N2OC(F)C(=O)O (stereo in doubt) [Example 42, lithium salt] = 5.2

* * *

assay: Stability/conversion of esters in rat intestinal S9; format: in vitro ADME; details: intestinal S9, pH 7.4, read-out: T1/2 Rat Intestinal S9
Counter-ions that a name gives are not always drawn.
In this section, each of the molecules is paired with its reported half-life at 10 μM.
property name: half-life at 10 μM (min)

• CCOC(=O)[C@H](F)ON1C(=O)N2C[C@H]1C=C(C)[C@H]2C(=O)NCO [Example 85] = 21
• COCCOC(=O)[C@@H](F)ON1C(=O)N2C[C@H]1C=C(C)[C@H]2C(N)=O [Example 18] = 16
• CCOC(=O)C(F)(F)ON1C(=O)N2C[C@H]1C=C(C)[C@H]2C(N)=O [Example 7] = 3.9
• CC1=C[C@@H]2CN(C(=O)N2O[C@H](F)C(=O)OC(C)C)[C@@H]1C(N)=O [Example 12] = 233
• CCCCCCCCOC(=O)[C@@H](F)ON1C(=O)N2C[C@H]1C=C(C)[C@H]2C(N)=O [Example 45] = 17
• CCCCCOC(=O)[C@@H](F)ON1C(=O)N2C[C@H]1C=C(C)[C@H]2C(N)=O [Example 51] = 4.1
• CCOC(=O)[C@H](F)ON1C(=O)N2C[C@H]1C=C(C)[C@H]2C(=O)NOC[C@@H]1CCCN1 [Example 60, TFA salt] = 21
• CCCOC(=O)[C@@H](F)ON1C(=O)N2C[C@H]1C=C(C)[C@H]2C(N)=O [Example 48] = 50
• CCCCOC(=O)[C@@H](F)ON1C(=O)N2C[C@H]1C=C(C)[C@H]2C(N)=O [Example 50] = 30
• CCOC(=O)CON1C(=O)N2C[C@H]1C=C(C)[C@H]2C(N)=O [Example 9] = 27.3
• CCCCCCOC(=O)[C@@H](F)ON1C(=O)N2C[C@H]1C=C(C)[C@H]2C(N)=O [Example 52] = 39
• CCOC(=O)C(F)(F)ON1C(=O)N2C[C@H]1C(C)=C[C@H]2C(N)=O [Example 90] = 3.3
• CCOC(=O)CON1C(=O)N2C[C@H]1C(C)=C[C@H]2C(N)=O [Example 92] = 397
• CC1=C[C@@H](C(N)=O)N2C[C@@H]1N(OCC(=O)OC(C)C)C2=O [Example 96] = 211
• CC1=C[C@@H]2CN(C(=O)N2O[C@H](F)C(=O)Oc2ccc3c(c2)CCC3)[C@@H]1C(N)=O [Example 65] = 1.3
• C=CCOC(=O)[C@@H](F)ON1C(=O)N2C[C@H]1C=C(C)[C@H]2C(N)=O [Example 47] = 11
• CC1=C[C@@H]2CN(C(=O)N2O[C@H](F)C(=O)OC(C)OC(=O)OC(C)C)[C@@H]1C(N)=O (some centres unmarked) [Example 53] = 4.2

* * *

test: Stability/conversion of esters in rat intestinal S9; type: in vitro ADME; conditions: intestinal S9, pH 7.4, read-out: T1/2 Rat Intestinal S9
property name: half-life at 10 μM (min)

- CC1=C[C@@H]2CN(C(=O)N2O[C@H](F)C(=O)OCOC(=O)C(C)(C)C)[C@@H]1C(N)=O [Example 64]: 1.1
- CC1=C[C@@H]2CN(C(=O)N2O[C@H](F)C(=O)OCC(C)C)[C@@H]1C(N)=O [Example 49]: 26
- CCOC(=O)[C@@H](F)ON1C(=O)N2C[C@H]1C=C(C)[C@H]2C(=O)NCO [Example 86]: 43

* * *

Measured AUC accompanies every entry in the list below.
Assay: Rat PK, intravenous and oral
Assay type: in vivo, Sprague-Dawley rats
Conditions: Sprague-Dawley, plasma; rat, IV 10 mg/kg; analyte = compound administered
Protocol: Intravenous rat pharmacokinetics of exemplar compounds were determined in jugular vein cannulated Sprague-Dawley rats (n=3) (Harlan Laboratories, Indianapolis, Ind.) at a dose of 10 mg/kg. Compounds were dissolved and administered intravenously in 0.9% saline, pH 6.5 at a dose volume of 2 mL/kg. […] Plasma concentration vs. time profiles following intravenous (IV) administration and oral (PO) administration of exemplar compounds were analyzed by non-compartment analysis using WinNonLin 6.4.
Where a name gives a salt, the structure may show the parent alone.
property name: AUC (µM·h)

* CC1=C[C@@H](C(N)=O)N2C[C@@H]1N(O[C@@H](F)C(=O)O)C2=O [Example 34, lithium salt] | 16.1
* CC1=C[C@@H]2CN(C(=O)N2O[C@@H](F)C(=O)O)[C@@H]1C(N)=O [Example 3, lithium salt] | 34.9
* CC1=C[C@@H](C(N)=O)N2C[C@@H]1N(O[C@H](F)C(=O)O)C2=O [Example 33, lithium salt] | 26.3
* CC1=C[C@@H]2CN(C(=O)N2O[C@H](F)C(=O)O)[C@@H]1C(N)=O [Example 4, lithium salt] | 19.1
